- Study System: ErbB-3 receptor-Ig fusion (human) (UniProt P21860)
- Sequence (P21860 whole entry, the tested form may be a part): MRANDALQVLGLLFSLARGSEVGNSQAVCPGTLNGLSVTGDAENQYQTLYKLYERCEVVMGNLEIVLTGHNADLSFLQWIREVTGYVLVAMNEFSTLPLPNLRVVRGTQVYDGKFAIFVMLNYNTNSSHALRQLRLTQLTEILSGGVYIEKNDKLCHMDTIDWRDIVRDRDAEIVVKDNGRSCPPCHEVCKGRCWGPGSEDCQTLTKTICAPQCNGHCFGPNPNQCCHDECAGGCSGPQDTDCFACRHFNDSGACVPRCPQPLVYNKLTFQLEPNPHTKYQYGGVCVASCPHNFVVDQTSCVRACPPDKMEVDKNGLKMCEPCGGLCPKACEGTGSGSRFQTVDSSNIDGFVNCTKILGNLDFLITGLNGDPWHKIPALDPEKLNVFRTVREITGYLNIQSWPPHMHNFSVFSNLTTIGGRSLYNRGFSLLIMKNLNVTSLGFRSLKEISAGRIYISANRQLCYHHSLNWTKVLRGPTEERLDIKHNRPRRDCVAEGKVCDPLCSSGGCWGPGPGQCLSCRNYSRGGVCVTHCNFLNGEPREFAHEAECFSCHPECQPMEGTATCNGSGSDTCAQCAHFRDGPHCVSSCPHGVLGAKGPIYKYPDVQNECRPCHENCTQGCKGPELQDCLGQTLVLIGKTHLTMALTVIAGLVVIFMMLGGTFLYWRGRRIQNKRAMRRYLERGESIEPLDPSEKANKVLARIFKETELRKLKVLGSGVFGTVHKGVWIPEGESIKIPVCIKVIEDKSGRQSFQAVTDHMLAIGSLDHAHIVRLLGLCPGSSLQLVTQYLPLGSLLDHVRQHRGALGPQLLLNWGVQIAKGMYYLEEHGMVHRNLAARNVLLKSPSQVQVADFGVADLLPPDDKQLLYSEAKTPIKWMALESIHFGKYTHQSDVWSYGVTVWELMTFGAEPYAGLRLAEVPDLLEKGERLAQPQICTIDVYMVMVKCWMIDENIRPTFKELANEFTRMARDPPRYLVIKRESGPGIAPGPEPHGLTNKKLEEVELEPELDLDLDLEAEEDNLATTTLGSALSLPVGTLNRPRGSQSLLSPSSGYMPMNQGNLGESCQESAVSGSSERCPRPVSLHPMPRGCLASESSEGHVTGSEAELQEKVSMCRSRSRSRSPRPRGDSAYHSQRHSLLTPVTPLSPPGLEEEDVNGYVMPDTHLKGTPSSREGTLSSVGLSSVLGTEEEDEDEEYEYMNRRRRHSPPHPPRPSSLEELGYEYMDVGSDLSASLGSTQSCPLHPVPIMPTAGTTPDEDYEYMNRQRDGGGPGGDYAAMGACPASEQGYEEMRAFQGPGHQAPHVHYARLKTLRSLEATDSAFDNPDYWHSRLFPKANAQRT
- Experimental Protocol: phage ELISA, competition with soluble ErbB-3-Ig
Measured Attribute: EC50 (nM)
The answer is to be given in nM; state only the numeric part.

Request: May I ask what EC50 has been recorded for HRG2 (HRG-β1 177-244 fused to pIII 247, displayed on phage) (ligand, human, UniProt Q02297-6 177-244, looked up, not shown: large carriers, monovalent phage display; also called pHRG2-g3) SHLVKCAEKEKTFCVNGGECFMVKDLSNPSRYLCKCPNEFTGDRCQNYVMASFYKHLGIEFMEAEELY ?
Response: 13
